B1: INTS3 (parent)
chain: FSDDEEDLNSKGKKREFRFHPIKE

# Variants of: B1
# test: protein stability index of a GFP-peptide fusion (GPS, HEK-293T) (PSI 1-6); higher = more stable;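 also: lentivirally expressed fusions sorted by FACS into six bins by GFP to DsRed ratio, PSI derived from sequencing read proportions per bin multiplied by bin number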
# measurement_conditions: c terminus: a fixed tail appended
// reported protein stability index for each item listed
Provide a numeric answer; units are not to be included.

The following variants have reported results that may help.
L8Y :: 3
G12P :: 2.98
K23Y :: 2.91
N9L :: 2.99

Please find the next variant below.
// query Given the entry "K11C" , report its measured protein stability index.
// result 2.99

Where do these numbers come from? They come from the supplement of paper PMC10567573.
